tested on: human CETP mRNA; test: Antisense inhibition of human CETP mRNA in primary hepatocytes from huCETP transgenic mice (Example 4); type: cell-based, mouse; conditions: 100 nM, cytofectin, ~24 hours
Strand notation (5' to 3'): a small letter for the sugar, then the base; units joined by * are phosphorothioate-linked, units joined directly phosphodiester-linked; [ ] holds rarer units or linkages, { } end groups; capitals alone tell only the bases. e = 2'-O-(2-methoxyethyl) (MOE); [5mC] = 5-methylcytosine; d = 2'-deoxy (DNA)
List of Percent inhibition of human CETP mRNA values.
Please reply with the bare figure in % and do not write the unit itself.

// below: answered substances
INSERT INTO measurements (substance, assay_result) VALUES
  ('ISIS 349505: 5-10-5 MOE gapmer CACTACCTCGAGCCGAGACA (e[5mC]*eA*e[5mC]*eT*eA*d[5mC]*d[5mC]*dT*d[5mC]*dG*dA*dG*d[5mC]*d[5mC]*dG*eA*eG*eA*e[5mC]*eA)', 98),
  ('ISIS 349453: 5-10-5 MOE gapmer GCATTGCCCAGCAGGGCCAG (eG*e[5mC]*eA*eT*eT*dG*d[5mC]*d[5mC]*d[5mC]*dA*dG*d[5mC]*dA*dG*dG*eG*e[5mC]*e[5mC]*eA*eG)', 2);

Enter recorded Percent inhibition of human CETP mRNA with human CETP mRNA for ISIS 349458: 5-10-5 MOE gapmer GGTAGCTGGCTCGCTGGAAG (eG*eG*eT*eA*eG*d[5mC]*dT*dG*dG*d[5mC]*dT*d[5mC]*dG*d[5mC]*dT*eG*eG*eA*eA*eG) here.
65
